- study target: human P2X2/3 receptors (Homo sapiens, UniProt P56373+Q9UBL9)
- Construct: expressed in transfected cells; host or cells: human astrocytoma 1321N1 (1312N1 [sic])
- Sequence (P56373 whole entry): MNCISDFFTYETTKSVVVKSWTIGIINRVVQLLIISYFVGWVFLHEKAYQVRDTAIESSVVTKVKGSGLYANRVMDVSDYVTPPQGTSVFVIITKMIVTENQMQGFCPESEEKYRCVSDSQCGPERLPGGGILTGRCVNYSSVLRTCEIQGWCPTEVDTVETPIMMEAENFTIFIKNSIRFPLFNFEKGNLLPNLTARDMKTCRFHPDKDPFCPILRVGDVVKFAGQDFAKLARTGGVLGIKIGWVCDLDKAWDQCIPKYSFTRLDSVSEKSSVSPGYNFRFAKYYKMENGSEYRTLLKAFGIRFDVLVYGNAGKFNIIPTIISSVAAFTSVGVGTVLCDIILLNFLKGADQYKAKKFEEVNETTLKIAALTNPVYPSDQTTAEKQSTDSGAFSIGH
- Sequence (Q9UBL9 whole entry): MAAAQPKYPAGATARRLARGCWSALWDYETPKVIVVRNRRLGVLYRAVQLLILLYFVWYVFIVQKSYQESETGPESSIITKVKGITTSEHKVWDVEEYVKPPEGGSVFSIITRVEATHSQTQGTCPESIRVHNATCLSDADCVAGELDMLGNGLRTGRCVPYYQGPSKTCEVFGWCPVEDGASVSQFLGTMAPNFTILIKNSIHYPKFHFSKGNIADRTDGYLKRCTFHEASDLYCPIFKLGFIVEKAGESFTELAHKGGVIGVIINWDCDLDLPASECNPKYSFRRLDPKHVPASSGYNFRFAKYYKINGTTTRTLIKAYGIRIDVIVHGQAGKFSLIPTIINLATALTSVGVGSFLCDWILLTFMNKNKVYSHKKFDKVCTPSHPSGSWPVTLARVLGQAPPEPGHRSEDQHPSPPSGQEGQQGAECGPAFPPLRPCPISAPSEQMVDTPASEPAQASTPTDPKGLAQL
- test: Intracellular calcium measurement, antagonist activity at human P2X2/3 receptors (hP2X23 1321N1), Fluo8
- Assay type: cell-based
- measurement parameters: column 4); 1321N1 cells, human P2X2/3, Fluo8, agonist ATP at EC50; read-out: 4) hP2X2/3 IC50 [nM] (1321N1)
endpoint label: IC50 (nM)

(1) CC(C)(C)c1cc2n(CC(=O)Nc3ccc(Cl)cn3)c3c(c(=O)n2n1)CN(C1CCC1)C3=O
(2) CCc1cc2n(CC(=O)Nc3ccc(F)cn3)c3c(c(=O)n2n1)CN([C@@H](C)COC)C3=O
Prompt: Between 1 and 2 , whose measured IC50 reads higher? Refer to your chosen entry by its label in the reply.
Completion: 2
(2: 14000 nM, 1: 2500 nM)
